assay: NCI Yeast Anticancer Drug Screen. Data for the mlh1 strain (AID 171); details: S. cerevisiae mlh1 strain growth inhibition; at 100.0 µM; hits give high values
About 79,000 compounds went through this panel and 15% of them were active in at least one assay; those are over-represented in the sample as a whole.
Outcome label depends on growth inhibition relative to 90%: at/above gives Satisfied, below gives Not satisfied.

## Input Reported growth inhibition reaches at least 90% for CC(=O)OCC1OC(O[C@H]2C=C[C@@H](C(=O)OCc3ccccc3)n3c(=O)n(-c4ccccc4)c(=O)n32)C(OC(C)=O)C(OC(C)=O)C1OC(C)=O (some centres not stated) ?
## Output Not satisfied

## Input Reported growth inhibition reaches at least 90% for Cc1cc(C(C)(C)CC(C)(C)C)cc(O)c1O ?
## Output Satisfied

## Input Reported growth inhibition reaches at least 90% for COc1cc(CNc2ccc(C(C)C)cc2)cc(OC)c1OC ?
## Output Not satisfied

## Input Reported growth inhibition reaches at least 90% for CN(C)CC1CCCc2ccccc2C1=O (configuration not stated) ?
## Output Satisfied
